target.desc: T1, Peptide 4: Biotin-AGGGGSGGGGSGGGGSAAA-Tyr-acid (N-terminal biotin; C-terminal acid)
T1 construct: control peptide without PC
T1 peptide: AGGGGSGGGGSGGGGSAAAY
measurement.protocol: scFv ELISA
Protocol: For ELISA analysis of scFv binding, 96-well polystyrene plates were coated with Peptide 1, 4, 5, 8 or 100 μL BSA (10 μg/mL) in PBS at 4° C. overnight. […] All plates were washed three times with PBS-Tween before 40 μL aliquots of PPE were added to assay plates along with 50 μL 10% BSA, and plates were incubated for 1 hour at room temperature. […] The amount of scFv bound to each well was quantitated from absorbance measurement at 450 nm (OD450).
metric: OD450 (OD450)
Provide only the numeric value, understood in OD450.

Return reported OD450; argument: PcOxP_DB02_C09 (scFv, V domains shown, scFv in periplasmic extract) VH: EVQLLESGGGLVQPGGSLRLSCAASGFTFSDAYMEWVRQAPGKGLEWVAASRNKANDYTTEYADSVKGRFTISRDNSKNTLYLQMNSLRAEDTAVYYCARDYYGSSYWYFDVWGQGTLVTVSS VL: DIQMTQSPSSLSASVGDRVTITCTASESLYSSKHKVHYLAWYQQKPGKAPKLLIYGAGNRYIGVPSRFSGSGSGTDFTLTISSLQPEDFATYYCAQFYFYPLTFGGGTKVEIK
0.05

Same lookup for PcOxP_DB01_D09 (scFv, V domains shown, scFv in periplasmic extract) VH: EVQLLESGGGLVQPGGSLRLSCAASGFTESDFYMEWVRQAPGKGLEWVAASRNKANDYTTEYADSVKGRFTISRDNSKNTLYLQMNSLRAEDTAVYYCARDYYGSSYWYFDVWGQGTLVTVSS VL: DIQMTQSPSSLSASVGDRVTITCTASESLYSAKHKVHYLAWYQQKPGKAPKLLIYGSSNRYIGVPSRFSGSGSGTDFTLTISSLQPEDFATYYCAQFYDYPLTFGGGTKVEIK , please.
0.05
